# assay-notes: Plasma pharmacokinetics, single ascending dose
# Format: in vivo, human
# study-conditions: male, human, plasma, po, 0.6 mg
metric: half-life

Query: Entry Nc1nnc(CN[C@@H]2C[C@H]2c2ccc(OCc3ccccc3)cc2)o1 needs its half-life filled in; supply it.
Result: 27 h

* * *

# assay-notes: Plasma pharmacokinetics, multiple ascending dose
# Type: in vivo, human
# study-conditions: both, human, plasma, oral, 2.5 mg/day, AUC0–t (D1), MAD 2.5 mg/day, day 1, young; mean (CV %)
metric: AUC(0-t)
# include the unit after the value

Query: Entry Nc1nnc(CN[C@@H]2C[C@H]2c2ccc(OCc3ccccc3)cc2)o1 needs its AUC(0-t) filled in; supply it.
Result: 292 ng·h/mL
